Data origin: ChEMBL document CHEMBL3797053

- TEST_TARGET: 5'-nucleotidase (Rattus norvegicus) (UniProt P21588)
- Sequence (whole entry): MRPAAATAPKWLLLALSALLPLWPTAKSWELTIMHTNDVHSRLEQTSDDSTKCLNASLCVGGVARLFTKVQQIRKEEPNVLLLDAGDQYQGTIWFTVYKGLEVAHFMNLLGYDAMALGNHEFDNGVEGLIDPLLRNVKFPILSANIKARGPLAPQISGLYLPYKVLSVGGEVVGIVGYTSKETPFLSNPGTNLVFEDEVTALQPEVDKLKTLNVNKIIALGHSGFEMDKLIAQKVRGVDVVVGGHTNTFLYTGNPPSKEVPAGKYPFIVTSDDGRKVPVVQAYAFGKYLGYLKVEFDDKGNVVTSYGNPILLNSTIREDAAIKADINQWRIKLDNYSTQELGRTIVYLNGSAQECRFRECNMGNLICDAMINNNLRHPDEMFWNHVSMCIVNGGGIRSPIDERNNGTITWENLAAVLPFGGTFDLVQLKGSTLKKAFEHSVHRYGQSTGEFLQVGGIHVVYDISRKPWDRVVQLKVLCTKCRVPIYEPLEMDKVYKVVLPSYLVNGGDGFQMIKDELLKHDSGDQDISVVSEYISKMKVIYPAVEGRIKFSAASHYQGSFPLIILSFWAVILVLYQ
- RUN_DESCRIPTION: Inhibition of rat Ecto-5'-nucleotidase transfected in COS7 cells at 1 mM preincubated for 10 mins followed by AMP addition measured after 10 mins
- Assay type: cell-based
- CONDITION_LABEL: COS-7
# inhibition per entry
Express it in %; write the number only.

Some compounds with recorded inhibition:
# COMPOUND, UNIT_TEXT, QUANTITATIVE_RESULT
records = [
    ("CCOC1Oc2ccccc2C(=O)/C1=C\\Nc1ccc(S(=O)(=O)Nc2cc(OC)nc(OC)n2)cc1 (racemic)", "%", 28.2),
    ("COC1Oc2ccc(F)cc2C(=O)/C1=C\\Nc1ccccc1S(N)(=O)=O (racemic)", "%", 45.4),
    ("COC1Oc2ccc(F)cc2C(=O)/C1=C\\Nc1cccc(S(N)(=O)=O)c1 (racemic)", "%", 46),
    ("COC1Oc2ccc(C)cc2C(=O)/C1=C\\Nc1ccc(S(N)(=O)=O)cc1 (racemic)", "%", 42.9),
    ("CCOC1Oc2ccc(Br)cc2C(=O)/C1=C\\Nc1ccc(S(=O)(=O)Nc2ccccn2)cc1 (racemic)", "%", 23.6),
]

Field inhibition (entry CCOC1Oc2ccccc2C(=O)/C1=C\Nc1ccc(S(=O)(=O)Nc2nnc(C)s2)cc1 (racemic) ) reads 48

Field inhibition (entry CCOC1Oc2ccc(Br)cc2C(=O)/C1=C\Nc1ccc(S(N)(=O)=O)cc1 (racemic) ) reads 29.7

Field inhibition (entry COC1Oc2ccc(F)cc2C(=O)/C1=C\Nc1ccc(S(N)(=O)=O)cc1 (racemic) ) reads 46.4

Field inhibition (entry COC1Oc2ccccc2C(=O)/C1=C\Nc1ccc(S(N)(=O)=O)cc1 (racemic) ) reads 27.7

Field inhibition (entry O=c1c(C2Nc3ccccc3S(=O)(=O)N2)coc2ccc(Br)cc12 (racemic) ) reads 20.3

Field inhibition (entry CCOC1Oc2ccccc2C(=O)/C1=C\Nc1ccc(S(N)(=O)=O)cc1 (racemic) ) reads 39.5

Field inhibition (entry CC(C)OC1Oc2ccccc2C(=O)/C1=C\Nc1cccc(S(N)(=O)=O)c1 (racemic) ) reads 25.7

Field inhibition (entry CCOC1Oc2ccccc2C(=O)/C1=C\Nc1cccc(S(N)(=O)=O)c1 (racemic) ) reads 30.1
